- Target desc: UniProt:Q8NER1
- Sequence (Q8NER1 whole entry): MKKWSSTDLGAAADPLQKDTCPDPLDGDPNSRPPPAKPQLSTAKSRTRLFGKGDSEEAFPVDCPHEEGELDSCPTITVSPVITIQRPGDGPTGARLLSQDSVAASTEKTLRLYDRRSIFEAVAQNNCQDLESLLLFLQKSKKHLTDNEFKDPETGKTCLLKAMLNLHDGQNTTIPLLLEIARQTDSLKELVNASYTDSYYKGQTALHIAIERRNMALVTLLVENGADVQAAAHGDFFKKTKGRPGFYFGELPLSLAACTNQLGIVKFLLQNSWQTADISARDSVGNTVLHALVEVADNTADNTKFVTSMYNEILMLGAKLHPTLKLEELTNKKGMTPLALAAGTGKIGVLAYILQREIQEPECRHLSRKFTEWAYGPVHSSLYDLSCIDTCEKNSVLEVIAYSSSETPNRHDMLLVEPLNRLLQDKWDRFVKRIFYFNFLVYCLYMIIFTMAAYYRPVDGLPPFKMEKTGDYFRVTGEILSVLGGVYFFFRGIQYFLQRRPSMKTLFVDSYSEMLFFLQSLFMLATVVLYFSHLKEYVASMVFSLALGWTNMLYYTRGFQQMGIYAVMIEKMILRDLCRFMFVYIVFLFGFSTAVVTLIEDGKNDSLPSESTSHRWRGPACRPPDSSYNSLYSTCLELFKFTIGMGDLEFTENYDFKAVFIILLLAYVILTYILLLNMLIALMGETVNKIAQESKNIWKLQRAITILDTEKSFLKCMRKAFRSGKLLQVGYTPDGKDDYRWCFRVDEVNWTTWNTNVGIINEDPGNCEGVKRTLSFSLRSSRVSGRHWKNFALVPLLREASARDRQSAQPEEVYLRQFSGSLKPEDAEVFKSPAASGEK
In this section we review reported Ki values for a set of compounds.
Measure: Ki (nM)

| Compound | Endpoint unit | Value |
| --- | --- | --- |
| COc1ccc2c(c1)CCC(NC(=O)Nc1cccc3cnccc13)C2Cc1cccc(Cl)c1 (stereo unspecified) | nM | 2 |
| O=C(Nc1cccc2cnccc12)NC1CCc2c(Cl)cccc2C1Cc1ccccc1 (stereo unspecified) | nM | 2 |
| O=C(NCC(Cc1cccc(C(F)(F)F)c1)c1ccc(F)cc1)Nc1cccc2cnccc12 (stereo unspecified) | nM | 20 |
| O=C(NCC(Cc1ccccc1)c1ccc(C(F)(F)F)cc1)Nc1cccc2cnccc12 (stereo unspecified) | nM | 4 |
| COc1ccc2c(c1)CCC(NC(=O)Nc1cccc3cnccc13)C2Cc1ccc(Br)cc1 (stereo unspecified) | nM | 1 |
| O=C(Nc1cccc2cnccc12)NC1CCc2cc(F)ccc2C1Cc1ccc(C(F)(F)F)cc1 (stereo unspecified) | nM | 1 |
| O=C(Nc1cccc2ccc(O)cc12)NC1CCc2cc(F)ccc2C1Cc1ccc(C(F)(F)F)cc1 (stereo unspecified) | nM | 22 |
| COc1ccc2c(c1)CCC(NC(=O)Nc1cccc3cnccc13)C2Cc1ccc(C#N)cc1 (stereo unspecified) | nM | 17 |
| COc1cc2c(cc1OC)C(Cc1ccccc1)C(NC(=O)Nc1cccc3cnccc13)CC2 (stereo unspecified) | nM | 20 |
| C=CCC1c2ccc(F)cc2CCC1NC(=O)Nc1cccc2cnccc12 (stereo unspecified) | nM | 2 |
| O=C(Nc1cccc2cnccc12)NC1CCc2ccc(Cl)cc2C1Cc1ccccc1 (stereo unspecified) | nM | 5 |
| COc1ccc2c(c1)CCC(NC(=O)Nc1cccc3cnccc13)C2Cc1ccc(C(F)(F)F)cc1 (stereo unspecified) | nM | 2 |
| O=C(NCC(Cc1ccccc1)c1ccc(F)cc1)Nc1cccc2cnccc12 (stereo unspecified) | nM | 8 |
| O=C(Nc1cccc2cnccc12)NC1CCc2cc(Cl)ccc2C1Cc1ccccc1 (stereo unspecified) | nM | 11 |
| O=C(Nc1cccc2cnccc12)NC1CCc2cc(F)ccc2C1Cc1cccs1 (stereo unspecified) | nM | 4 |
| COc1ccc2c(c1)CCC(NC(=O)Nc1cccc3ccc(O)cc13)C2Cc1ccccc1 (stereo unspecified) | nM | 10 |
| COc1ccc(C(CNC(=O)Nc2cccc3cnccc23)Cc2cccnc2)cc1 (stereo unspecified) | nM | 578 |
| O=C(Nc1cccc2cnccc12)NC1CCc2ccccc2C1Cc1ccccc1 (stereo unspecified) | nM | 4 |
| COc1ccc(C(C)CNC(=O)Nc2cccc3cnccc23)cc1 (stereo unspecified) | nM | 1290 |
| COc1ccc2c(c1)CCC(NC(=O)Nc1cccc3cnccc13)C2Cc1ccccc1 (stereo unspecified) | nM | 3 |
| COc1ccc(C(CNC(=O)Nc2cccc3cnccc23)Cc2ccccc2)cc1 (stereo unspecified) | nM | 6 |
| O=C(Nc1cccc2cnccc12)NC1CCc2cc(F)ccc2C1Cc1ccoc1 (stereo unspecified) | nM | 16 |
| COc1ccc(CC2c3ccc(OC)cc3CCC2NC(=O)Nc2cccc3cnccc23)cc1 (stereo unspecified) | nM | 8 |
| O=C(Nc1cccc2cnccc12)NC1CCc2cc(F)ccc2C1Cc1ccccc1 (stereo unspecified) | nM | 4 |
| O=C(Nc1cccc2cnccc12)NC1CCc2cc(Br)ccc2C1Cc1ccccc1 (stereo unspecified) | nM | 2 |
| O=C(Nc1cccc2cnccc12)NC1CCc2cc(F)ccc2C1CC1CC1 (stereo unspecified) | nM | 0.8 |

Every entry's value here was drawn from ChEMBL document CHEMBL1140534.
